The compounds below have reported MIC for Streptococcus pyrogens ATCC 19615.
Express it in µg/mL; write the number only.

Asked: Endpoint output: MIC of CC1CN(c2nc3c(cc2F)c(=O)c(C(=O)O)cn3-c2ccncc2F)CCN1.Cl (stereo not drawn) [Example 9] . Value?
Given back: 10

Asked: Now give it for N[C@H]1CCN(c2cc3c(cc2F)c(=O)c(C(=O)O)cn3-c2ccncc2F)C1 [Example 6] too.
Given back: 2.5

Asked: Now give it for CC1CN(c2nc3c(cc2F)c(=O)c(C(=O)O)cn3-c2ccc(F)cn2)CCN1.Cl (stereo not drawn) [Example 14] too.
Given back: 10

Asked: Now give it for CN1CCN(c2nc3c(cc2F)c(=O)c(C(=O)O)cn3-c2ccc(F)cn2)CC1.Cl [Example 13] too.
Given back: 5

Asked: Now give it for CC1CN(c2nc3c(cc2F)c(=O)c(C(=O)O)cn3-c2ccc(F)cn2)CC(C)N1.Cl (stereo not drawn) [Example 15] too.
Given back: 10

Asked: Now give it for Cl.NC1CCN(c2cc3c(cc2F)c(=O)c(C(=O)O)cn3-c2ccc(F)cn2)C1 (stereo not drawn) [Example 21] too.
Given back: 2.5

Asked: Now give it for Cc1c(F)c(N2CCNC(C)C2)cc2c1c(=O)c(C(=O)O)cn2-c1ccc(F)cn1.Cl (stereo not drawn) [Example 29] too.
Given back: 10

Asked: Now give it for Cl.N[C@H]1CCN(c2nc3c(cc2F)c(=O)c(C(=O)O)cn3-c2ccncc2F)C1 [Example 11] too.
Given back: 2.5

Asked: Now give it for Cl.NC1CCN(c2nc3c(cc2F)c(=O)c(C(=O)O)cn3-c2ccc(F)cn2)C1 (stereo not drawn) [Example 16] too.
Given back: 2.5

====

- measurementNotes: Pharmacokinetic properties in ICR mouse, oral and subcutaneous, Bio-Assay (Agar well method)
- Format: in vivo
- conditions: blood, sc, S.C, 40 mg/kg, average of four tests
measurementKind: Cmax (ng/mL)
Express it in ng/mL; write the number only.

// known answers, use as guide
CC1CN(c2nc3c(cc2F)c(=O)c(C(=O)O)cn3-c2ccc(F)cn2)CCN1.Cl (stereo not shown) : 4280
Cc1c(F)c(N2CCNC(C)C2)cc2c1c(=O)c(C(=O)O)cn2-c1ccc(F)cn1.Cl (stereo not shown) : 8340
CC1COc2c(N3CCN(C)CC3)c(F)cc3c(=O)c(C(=O)O)cn1c23 (stereo not shown) [Ofloxacin, reference compound] : 12900

Please turn your attention to the following entry.
Asked: Endpoint output: Cmax of CN1CCN(c2cc3c(cc2F)c(=O)c(C(=O)O)cn3-c2ccc(F)cn2)CC1.Cl . Value?
Given back: 19600

====

The compounds below have reported MIC for Streptococcus pneumoniae ATCC 6303.
Express it in µg/mL; write the number only.

Cl.NC1CCN(c2c(F)cc3c(=O)c(C(=O)O)cn(-c4ccc(F)cn4)c3c2F)C1 (stereo not drawn) : 2.5

Asked: Endpoint output: MIC of CC1CN(c2c(F)cc3c(=O)c(C(=O)O)cn(-c4ccc(F)cn4)c3c2F)CCN1.Cl (stereo not drawn) . Value?
Given back: 5

Asked: Now give it for CN1CCN(c2cc3c(cc2F)c(=O)c(C(=O)O)cn3-c2ccc(F)cn2)CC1.Cl too.
Given back: 5

# credit: patent US5496947A
